src = patent US20090048164A1

What Fold/wt was measured for each of the following?
biological target: mouse Mcl-1 with truncations of 151 amino acid residues at its N-terminus and 23 residues at its C-terminus (mouse) (UniProt P97287); test: competition phage ELISA
Sequence (P97287 152-308): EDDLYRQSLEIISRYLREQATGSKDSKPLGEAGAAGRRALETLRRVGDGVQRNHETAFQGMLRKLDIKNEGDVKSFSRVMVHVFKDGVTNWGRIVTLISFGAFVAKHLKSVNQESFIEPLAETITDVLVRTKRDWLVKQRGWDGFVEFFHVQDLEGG
FLAG = FLAG tag
The answer is to be given in fold; state only the numeric part.

Data request: What value of Fold/wt has been recorded for this entry: PSSTMEQVGRQLAIIGDDINRRYDSE [Bak BH3 G6E, phage-displayed]
Data returned: 1

Data request: What value of Fold/wt has been recorded for this entry: PSSTMGQVERQLAIIGDDINRRYDSE [Bak BH3 G9E, phage-displayed]
Data returned: 21

Data request: What value of Fold/wt has been recorded for this entry: QEDIIRNIARHLAQVGDSMDRSIPPG [Bid BH3 wild type, phage-displayed]
Data returned: 1

Data request: What value of Fold/wt has been recorded for this entry: AEDIIRNIARHLAQVGDSMDRSIPPG [Bid BH3 Q1A, phage-displayed]
Data returned: 1

Data request: What value of Fold/wt has been recorded for this entry: {FLAG}-RAEAPPEFAAQLRKIGDKVYCTWSAP-{GGGT-g3(249-406)} [mNoxaA BH3 L4A, phage-displayed]
Data returned: 1
